- System: Kochia scoparia (KCHSC)
- TEST: Herbicidal pre-emergence action, section C (Table C13)
- Format: in vivo
- EXPERIMENTAL_CONDITIONS: application rate 320 g/ha; visual grading after ca. 3 weeks
Reported pre-emergence activity against KCHSC in % values for the following compounds.
Write down the numeric answer in % and omit the unit.

See these solved cases before continuing.
Cc1cc2c(nc1-c1ccccc1)N(C(=O)C1(C)CC(Cl)=NO1)CS2 (centres unmarked); 90
COCCOCCOCC(=O)N1CSc2cc(Br)c(-c3cccc(F)c3F)nc21; 90
Cc1cc2c(nc1-c1cccc(C)c1F)NCS2; 80
CC1(C(=O)N2CSc3cc(Br)c(-c4ccccc4)nc32)CC(Cl)=NO1 (centres unmarked); 90
Cc1cc2c(nc1-c1ccccc1F)N(C(=O)C13CCCC1C(Cl)=NO3)CS2 (centres unmarked); 90

Q: What pre-emergence activity against KCHSC in % value was documented for this compound, Cc1ccccc1-c1nc2c(cc1C)SCN2C(=O)C1(C)CC(Cl)=NO1 (centres unmarked) ?
Ans: 100

Q: Fill in the blank: the reported pre-emergence activity against KCHSC in % of COCC1(C(=O)N2CSc3cc(C)c(-c4ccccc4F)nc32)CC(Cl)=NO1 (centres unmarked) is ____.
Ans: 90

Q: Which pre-emergence activity against KCHSC in % is listed for `Cc1cc2c(nc1-c1ccccc1F)N(S(=O)(=O)Cc1ccc(F)cc1)CS2` ?
Ans: 90

---

- System: Zea mays (ZEAMX)
- TEST: Post-emergence effects on crop plants, section F (Table F1)
- Type: in vivo
- EXPERIMENTAL_CONDITIONS: crop plant damage, application rate 320 g/ha
# post-emergence activity against ZEAMX in % values compiled below
Field: value (include unit after the number)

Worked examples, 4 compounds total:
COc1ccccc1-c1nc2c(cc1Br)SCN2B(N)N [Example I-087]; 0%
BN1CSc2cc(Br)c(-c3ccccc3C)nc21 [Example I-011]; 0%
Cc1cc2c(nc1-c1ccccc1F)N(S(=O)(=O)Cc1ccc(F)cc1)CS2 [Example I-122]; 0%
CC1(C(=O)N2CSc3cc(Br)c(-c4ccccc4)nc32)CC(Cl)=NO1 (centres unmarked) [Example I-139]; 0%

Turning now to a further record.
Q: Name the reported post-emergence activity against ZEAMX in % value associated with the compound Cc1cc2c(nc1-c1ccccc1)N(C(=O)C1(C)CC(Cl)=NO1)CS2 (centres unmarked) [Example I-088]
Ans: 0%

---

- Test system: Triticum aestivum (TRZAS)
- TEST: Post-emergence effects on crop plants, section F (Table F2)
- Format: in vivo
- EXPERIMENTAL_CONDITIONS: Triticum aestivum, 504 h, application rate 320 g/ha, read-out: post-emergence activity against TRZAS in %
Listed here are compounds together with their documented percent crop plant damage (wheat, post-emergence) at 320 g/ha.
Entry rule: numbers only, all in %.

Here's what some known entries look like.
CCS(=O)(=O)N1CS(=O)(=O)c2cc(C)c(-c3ccccc3F)nc21 [Example I-146]; 0
CS(=O)(=O)N1C[S+]([O-])c2cc(Br)c(-c3ccccc3Cl)nc21 (centres unmarked) [Example I-133]; 0
CC(C)C(=O)N1C[S+]([O-])c2cc(Br)c(-c3ccccc3)nc21 (centres unmarked) [Example I-067]; 0
O=C(c1ccccc1C(F)(F)F)N1CSc2cc(Br)c(-c3ccccc3Cl)nc21 [Example I-061]; 0
CC1(C(=O)N2CSc3cc(Br)c(-c4ccccc4Cl)nc32)CC(Cl)=NO1 (centres unmarked) [Example I-141]; 0
CCc1ccccc1-c1nc2c(cc1C)[S+]([O-])CN2 (centres unmarked) [Example I-047]; 0

Q: # value lookup — system Triticum aestivum (TRZAS), readout percent crop plant damage (wheat, post-emergence) at 320 g/ha, item COC(=O)CCC(=O)N1CSc2cc(Br)c(-c3sccc3Cl)nc21 [Example I-077]
Ans: 20

Q: Recall the recorded percent crop plant damage (wheat, post-emergence) at 320 g/ha for Cc1cc2c(nc1-c1cccc(F)c1F)N(S(C)(=O)=O)CS2(=O)=O [Example I-151] with Triticum aestivum (TRZAS) and state it.
Ans: 0

Q: Requested read-out percent crop plant damage (wheat, post-emergence) at 320 g/ha, target or system Triticum aestivum (TRZAS), entry Clc1ccccc1-c1nc2c(cc1Br)SCN2 [Example I-041]
Ans: 0

Q: Can you look up percent crop plant damage (wheat, post-emergence) at 320 g/ha on Triticum aestivum (TRZAS) for Cc1cc2c(nc1-c1ccccc1F)N(C(=O)C1CC1)CS2 [Example I-018] ?
Ans: 10

Q: Hi! What's the reported percent crop plant damage (wheat, post-emergence) at 320 g/ha for CC(=O)N1CSc2cc(Br)c(-c3ccccc3Cl)nc21 [Example I-055] on Triticum aestivum (TRZAS)?
Ans: 0
